abundance fitness by entry:
B1: Gamma-crystallin C, residues 4 to 79; numbered along this chain, P07315 (parent)
chain: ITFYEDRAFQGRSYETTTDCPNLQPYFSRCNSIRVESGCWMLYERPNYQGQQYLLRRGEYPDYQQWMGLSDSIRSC

variants of: B1; assay: abundance fitness (aPCA) (normalised: wild type 0, dead -1); higher = more abundant; growth selection in yeast, the domain comes from the species named; details: Homo sapiens
Number only, no unit.

In the examples that follow, each entry is paired with its recorded abundance fitness.
Sequence variant	abundance fitness
Y63D	-0.067
E44C	0.068
R7M	-0.444
R7D	-0.153
N22E	-0.1

Could you share which abundance fitness value was measured for "Y63R" ?
-0.049

// query: "W40Y"
-0.16
